Recorded values, source PubChem BioAssay (NCI).

tested on: RPMI-8226 leukemia; experiment: NCI tumour cell line growth inhibition, 48 h
readout-type: GI50

Provide value of GI50 for this record tested with RPMI-8226 leukemia: O=C(c1ccco1)c1c(C(F)(F)F)n([O-])c2ccc(C(F)(F)F)cc2[n+]1=O 0.383 µM

Provide value of GI50 for this record tested with RPMI-8226 leukemia: C=CC(=O)N1CN(C(=O)C=C)CN(C(=O)C=C)C1 2.29 µM

Provide value of GI50 for this record tested with RPMI-8226 leukemia: O=C(/C(=C\c1c(-c2ccccc2)[nH]c2ccccc12)S(=O)(=O)c1ccccc1)c1ccccc1 7.61 µM

Provide value of GI50 for this record tested with RPMI-8226 leukemia: COc1cc(/C=C\c2cc(OC)c(OC)c(OC)c2)cc(N/C=C\C(=O)c2c[nH]c3ccccc23)c1OC 0.627 µM

Provide value of GI50 for this record tested with RPMI-8226 leukemia: O=C(Nc1cc(Cl)ccc1O)c1ccc(Nc2ccnc(C(F)(F)F)c2)cc1 1.25 µM

* * *

Would you mind telling me the reported TGI of each entry?
system: HOP-92 NSCLC; assay: NCI tumour cell line growth inhibition, 48 h

Provide value of TGI for this record tested with HOP-92 NSCLC: Cc1ccc([N+](=O)[O-])cc1N=NC(=O)NNc1cc([N+](=O)[O-])ccc1C > 100 µM

Provide value of TGI for this record tested with HOP-92 NSCLC: O=C(NC(COC(=O)C(Cc1ccccc1)NC(=O)c1ccccc1)Cc1ccccc1)c1ccccc1 (stereo not drawn) > 50 µM

Provide value of TGI for this record tested with HOP-92 NSCLC: Cc1ccc(OCCn2cc(Nc3ccccc3)c(=O)n(CCOc3ccc(C)cc3)c2=O)cc1 > 100 µM

* * *

Would you mind telling me the reported TGI of each entry?
system: RXF 393 renal; test: NCI tumour cell line growth inhibition, 48 h

Provide value of TGI for this record tested with RXF 393 renal: Nc1ccccc1C(=O)/C=C/c1c(O)ccc2ccccc12 > 100 µM

Provide value of TGI for this record tested with RXF 393 renal: COc1ccc(-c2nc(-c3cc(OC)cc(OC)c3)[nH]c2-c2ccc(OC)cc2)cc1 > 100 µM

Provide value of TGI for this record tested with RXF 393 renal: N[C@H](CCC(=O)N[C@@H](Cc1c[nH]c2ccccc12)C(=O)O)C(=O)O > 100 µM

Provide value of TGI for this record tested with RXF 393 renal: Nc1c(-c2ccccc2-c2c(N)[n+]([O-])c3ccccc3[n+]2[O-])[n+]([O-])c2ccccc2[n+]1[O-] > 100 µM

Provide value of TGI for this record tested with RXF 393 renal: Cc1[nH]c2ccccc2c1C1Cc2ccccc2N1C(=O)C#Cc1ccc([N+](=O)[O-])cc1 (stereo not given) > 100 µM

Provide value of TGI for this record tested with RXF 393 renal: COc1ccc(C(CC(=O)c2ccc3c(c2)OCO3)c2c(O)c3ccccc3oc2=O)cc1OC (stereo not given) > 100 µM

Provide value of TGI for this record tested with RXF 393 renal: CC(C)=CCC/C(C)=C/COC(C)(C)C1=CCC(C)CC1 (stereo not given) (tested in a mixture with another compound) > 100 µM

Provide value of TGI for this record tested with RXF 393 renal: O=C(Oc1cc(=O)c(OC(=O)c2ccccc2)co1)c1ccccc1 > 100 µM

Provide value of TGI for this record tested with RXF 393 renal: C=Cc1ccc(C)[n+](C[Si](C)(C)O[Si](C)(C)C[n+]2cc(C=C)ccc2C)c1 > 100 µM

Provide value of TGI for this record tested with RXF 393 renal: COc1cc2nc(-c3cccs3)oc(=O)c2cc1OC > 100 µM

Provide value of TGI for this record tested with RXF 393 renal: COc1cc2cc(Oc3ccc(NC(=O)c4cc(C(F)(F)F)cc(C(F)(F)F)c4)cc3)c(C)nc2cc1OC > 50 µM

Provide value of TGI for this record tested with RXF 393 renal: CCC1=NC(C(F)(F)F)(C(F)(F)F)N=C(N2CCOCC2)O1 > 100 µM

Provide value of TGI for this record tested with RXF 393 renal: COC(=O)C(=O)C(C(C)=O)C(=O)NCc1ccc(OC)c(OC)c1 (stereo not given) > 100 µM

Provide value of TGI for this record tested with RXF 393 renal: O=C1CC(C(O)(C(F)(F)F)C(F)(F)Cl)CCC1C(O)(C(F)(F)F)C(F)(F)Cl (stereo not given) > 10 µM

Provide value of TGI for this record tested with RXF 393 renal: Cc1ccc(C)c(N2C/C(=N\NC(=O)CC#N)C(c3nc4ccccc4s3)C(=O)C2=O)c1 (stereo not given) > 100 µM

* * *

Would you mind telling me the reported TGI of each entry?
system: A498 renal; test: NCI tumour cell line growth inhibition, 48 h

Provide value of TGI for this record tested with A498 renal: N[C@H](CCC(=O)N[C@@H](Cc1c[nH]c2ccccc12)C(=O)O)C(=O)O > 100 µM

Provide value of TGI for this record tested with A498 renal: CC(C(=O)c1ccc(Cl)cc1)/C(=N/NC(=O)NN)C(=O)Nc1cccc(C(F)(F)F)c1 (stereo unspecified) > 100 µM

Provide value of TGI for this record tested with A498 renal: CCN(CC)CCCNC(=O)c1ccc([N+](=O)[O-])cc1O > 100 µM

Provide value of TGI for this record tested with A498 renal: Cn1c(=O)nc2n(-c3cc(C(F)(F)F)cc(C(F)(F)F)c3)c3ccccc3nc-2c1=O > 100 µM

Provide value of TGI for this record tested with A498 renal: O=C(Nc1cc(Nc2ncccc2-c2ncnc3nc[nH]c23)ccc1F)c1cc(C(F)(F)F)cc(C(F)(F)F)c1 3.92 µM

Provide value of TGI for this record tested with A498 renal: COc1ccc(S(=O)(=O)N2C(=O)CCC2C(=O)NN)cc1 (stereo unspecified) > 100 µM

* * *

system: SK-OV-3 ovarian; assay: NCI tumour cell line growth inhibition, 48 h
Would you mind telling me the reported TGI of each entry?
# value in µM; strip the unit string

TGI for CC(C)CC(C/C=C1/CC(CO)(COC(=O)C(C)(C)C)OC1=O)CC(C)C (stereo not given) ? 39.7

TGI for Cc1ccc([N+](=O)[O-])cc1N=NC(=O)NNc1cc([N+](=O)[O-])ccc1C ? 36

TGI for ClC(Cl)=C1C(=C(Cl)Cl)C(Cl)(Cl)C1(Cl)Cl ? 28.8

* * *

test system: T-47D breast; assay: NCI tumour cell line growth inhibition, 48 h
readout-type: TGI

TGI for CCc1ccc2c(c1)C(=O)c1c-2n(CCCN=[N+]=[N-])c(=O)c2cc([N+](=O)[O-])ccc12 ? > 50 µM

TGI for CC1(C)CN=C(NN=C(/C=C/c2ccc(C(F)(F)F)cc2)/C=C/c2ccc(C(F)(F)F)cc2)NC1 ? 3.03 µM

TGI for O=c1ccn(C2OC(CO)C(P(=O)(O)O)C2O)c(=O)[nH]1 (centres undefined) ? > 100 µM

TGI for CC1CN=C(N(C(=O)Nc2ccc(F)c(Cl)c2)c2ccccc2)S1 (centres undefined) ? > 100 µM

* * *

test system: PC-3 prostate; assay: NCI tumour cell line growth inhibition, 48 h
Would you mind telling me the reported TGI of each entry?

TGI for Cc1ccc([N+](=O)[O-])cc1N=NC(=O)NNc1cc([N+](=O)[O-])ccc1C ? > 100 µM

TGI for O=C(/C=C/c1ccccc1)c1ccccc1 ? > 10 µM

TGI for CCc1c[n+]([O-])c(C)cc1[N+](=O)[O-] ? > 100 µM

* * *

system: SNB-78 CNS; assay: NCI tumour cell line growth inhibition, 48 h
Would you mind telling me the reported TGI of each entry?

TGI for CCC1CN2CCc3cc(OC)c(OC)cc3C2CC1CC1c2cc(OC)c(OC)cc2CCN1C(=O)C1CCCN1 (centres undefined) ? > 100 µM

TGI for Cn1ccnc1C(O)(c1nccn1C)c1nccn1C ? > 100 µM

TGI for Nc1nc(N)c(N=O)c(Nc2ccc(Br)cc2)n1 ? > 100 µM

TGI for CC1=NN(C(=O)CC(=O)Nc2ccccc2F)C(=O)C1N=Nc1ccccc1[N+](=O)[O-] (centres undefined) ? > 100 µM

TGI for COC(=O)C(=O)C(C(C)=O)C(=O)NCc1ccc(OC)c(OC)c1 (centres undefined) ? > 100 µM

TGI for CN(C(=O)c1ccc([N+](=O)[O-])cc1)c1ccccc1 ? > 100 µM

TGI for CCOP(=O)(OCC)C(C(=O)OC)C(=O)C(=O)Nc1ccc(Cl)cc1Cl (centres undefined) ? > 100 µM

TGI for O=C(Cc1nc2c3c(ccc2[nH]c1=O)C(=O)c1ccccc1C3=O)C(=O)Nc1ccccc1[N+](=O)[O-] ? 16.5 µM

TGI for COc1cc2c(cc1OC)[C@H]1CN3CCC[C@H]3C=C1c1ccc(OC)c(O)c1-2 ? 0.00049 µM

TGI for O=C(CN(c1ccccc1)c1ccccc1)N1c2ccccc2C2C=CC=CC21 (centres undefined) ? > 58.7 µM

TGI for Cc1cccc(C2=C/C(=C(\SS/C(C(=O)c3ccc(OCC(=O)O)c(Cl)c3Cl)=C3\C=C(c4cccc(C)c4)SS3)C(=O)c3ccc(OCC(=O)O)c(Cl)c3Cl)SS2)c1 ? 80.6 µM

TGI for O=C(N/C(=C\c1ccc([N+](=O)[O-])cc1)c1nc2ccccc2[nH]1)c1ccccc1 ? > 100 µM

TGI for O=[N+]([O-])c1cccc(C2=NOC(C3CCCCC3)C2)c1 (centres undefined) ? > 100 µM

TGI for C=Cc1ccc(C)[n+](C[Si](C)(C)O[Si](C)(C)C[n+]2cc(C=C)ccc2C)c1 ? > 100 µM

TGI for O=C1NCCS(=O)(=O)N[C@@H](CC2=CC=CCC2)C(=O)N2CCCC12 (some centres undefined) ? > 100 µM

TGI for CC12CCC3C(CCC4CC(OC(=O)Cc5ccc(N(CCCl)CCCl)cc5)CCC43C)C1CCC(=O)N2 (centres undefined) ? 40.7 µM

TGI for COC(=O)/C(=N/O)C(C(=O)C=C(C)C)C(=O)C(=O)Nc1nc2ccc([N+](=O)[O-])cc2s1 (centres undefined) ? > 100 µM

TGI for CCNC(=O)/C(=C/c1ccc(OC)cc1)c1cc(OC)c(OC)c(OC)c1 ? > 100 µM

TGI for CO[C@H]1Nc2c(ccc(C)c2O)C(=O)N2C=C(/C=C/C(N)=O)C[C@@H]12 ? 18.4 µM
